- Study system: hOATP1B3 (Homo sapiens, UniProt Q9NPD5)
- Construct: expressed in transfected cells; host or cells: 293 cells (control: empty vector)
- Experiment description: Inhibition of hOATP1B3-mediated 3H-BSP uptake, stably transfected 293 cells
- Format: cell-based
- Setup conditions: human, stably transfected 293 cells expressing hOATP1B3, probe 3H-bromosulphophthalein (BSP); 2 mM iohexol; substrate 0.02 μM 3H-BSP; median (95% CI); read-out: Inhibitory effect (% reduction of specific activity)
Reported property: inhibition at 7 min, 2 mM (%)
Numbers only; they are read as %.

For the compound CC(=O)N(CC(O)CO)c1c(I)c(C(=O)NCC(O)CO)c(I)c(C(=O)NCC(O)CO)c1I (stereo not shown) [iohexol] , report inhibition at 7 min, 2 mM.
-2.5

* * *

- Study system: hMDR1 (Homo sapiens, UniProt P08183)
- Construct: purchased Pharm Tox, Netherlands; host or cells: HEK293 cells (membrane vesicles)
- Sequence (P08183 whole entry): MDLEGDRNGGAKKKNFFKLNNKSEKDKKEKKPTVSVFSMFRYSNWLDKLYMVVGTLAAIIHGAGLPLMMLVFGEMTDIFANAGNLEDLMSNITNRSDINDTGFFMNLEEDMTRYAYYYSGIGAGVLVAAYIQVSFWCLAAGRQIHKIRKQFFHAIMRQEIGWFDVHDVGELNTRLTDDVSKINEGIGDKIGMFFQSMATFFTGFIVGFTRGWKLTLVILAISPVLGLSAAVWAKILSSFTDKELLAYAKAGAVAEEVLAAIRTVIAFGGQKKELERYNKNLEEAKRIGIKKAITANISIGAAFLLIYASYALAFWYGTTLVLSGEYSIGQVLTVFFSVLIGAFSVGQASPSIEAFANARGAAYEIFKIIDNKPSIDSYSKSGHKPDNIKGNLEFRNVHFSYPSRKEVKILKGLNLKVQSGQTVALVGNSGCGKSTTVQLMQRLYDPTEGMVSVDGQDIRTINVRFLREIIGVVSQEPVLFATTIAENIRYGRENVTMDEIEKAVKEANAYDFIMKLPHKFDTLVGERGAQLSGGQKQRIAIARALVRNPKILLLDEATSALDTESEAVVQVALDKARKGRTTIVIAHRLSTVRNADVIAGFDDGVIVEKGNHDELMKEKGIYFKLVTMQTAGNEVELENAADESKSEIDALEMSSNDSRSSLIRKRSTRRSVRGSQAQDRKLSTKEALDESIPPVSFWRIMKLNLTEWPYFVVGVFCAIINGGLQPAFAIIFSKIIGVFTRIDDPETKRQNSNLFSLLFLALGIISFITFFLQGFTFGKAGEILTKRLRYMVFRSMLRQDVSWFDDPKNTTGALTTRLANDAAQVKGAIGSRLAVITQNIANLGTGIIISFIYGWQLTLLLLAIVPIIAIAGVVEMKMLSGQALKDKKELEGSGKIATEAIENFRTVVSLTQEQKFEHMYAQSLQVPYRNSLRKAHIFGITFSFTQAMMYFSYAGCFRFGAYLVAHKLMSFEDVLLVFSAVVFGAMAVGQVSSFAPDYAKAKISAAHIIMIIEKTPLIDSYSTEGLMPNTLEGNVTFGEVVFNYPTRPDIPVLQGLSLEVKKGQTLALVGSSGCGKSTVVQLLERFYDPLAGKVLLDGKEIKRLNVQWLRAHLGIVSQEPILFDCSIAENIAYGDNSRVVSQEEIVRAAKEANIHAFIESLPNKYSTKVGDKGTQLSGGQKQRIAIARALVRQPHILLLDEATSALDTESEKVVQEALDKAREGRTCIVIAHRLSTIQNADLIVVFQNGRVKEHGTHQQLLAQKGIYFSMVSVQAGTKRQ
- Experiment description: Inhibition of hMDR1-mediated 3H-NMQ uptake, inside-out membrane vesicles
- Assay type: biochemical
- Setup conditions: human, probe 3H-NMQ (N-methyl-quinidine), 0.01 µM, 20 mM iohexol; substrate 0.01 µM 3H-NMQ; median (95% CI); read-out: Inhibitory effect (% reduction of specific activity)
Reported property: inhibition at 1 min, 20 mM
Please provide the amount together with its unit, number first.

For the compound CC(=O)N(CC(O)CO)c1c(I)c(C(=O)NCC(O)CO)c(I)c(C(=O)NCC(O)CO)c1I (stereo not shown) [iohexol] , report inhibition at 1 min, 20 mM.
21%

* * *

- Experiment description: Clinical trial in healthy volunteers, noncompartmental analysis of plasma and urine
- Format: in vivo, human
- Setup conditions: human, plasma, iv, 3235 mg, Reference: 3235 mg i.v. bolus, fasting; plasma, n=12; geomean (geoSD); read-out: AUC0‐t
Reported property: AUC

For the compound CC(=O)N(CC(O)CO)c1c(I)c(C(=O)NCC(O)CO)c(I)c(C(=O)NCC(O)CO)c1I (stereo not shown) [iohexol] , report AUC.
598 µg·h/mL

* * *

- Experiment description: Clinical trial in healthy volunteers, noncompartmental analysis of plasma and urine
- Format: in vivo, human
- Setup conditions: human, plasma, iv, 259 mg, Test: 259 mg i.v. bolus, fasting; plasma, n=12; geomean (geoSD); read-out: AUC0‐t
Reported property: AUC

For the compound CC(=O)N(CC(O)CO)c1c(I)c(C(=O)NCC(O)CO)c(I)c(C(=O)NCC(O)CO)c1I (stereo not shown) [iohexol] , report AUC.
46500 ng·h/mL

* * *

- Experiment description: Clinical trial in healthy volunteers, noncompartmental analysis of plasma and urine
- Format: in vivo, human
- Setup conditions: human, iv; Reference: 3235 mg i.v. bolus, fasting; plasma, n=12; geomean (geoSD); read-out: t1/2,λz (converted)
Reported property: half-life (h)
Numbers only; they are read as h.

For the compound CC(=O)N(CC(O)CO)c1c(I)c(C(=O)NCC(O)CO)c(I)c(C(=O)NCC(O)CO)c1I (stereo not shown) [iohexol] , report half-life.
4.14

* * *

- Experiment description: Clinical trial in healthy volunteers, population pharmacokinetic analysis
- Format: in vivo, human
- Setup conditions: human, plasma and urine, intravenous, Model 1: excluding samples within 45 minutes after the test dose for the subject with delayed absorption; read-out: CLR estimate (converted)
Reported property: CL renal
Please provide the amount together with its unit, number first.

For the compound CC(=O)N(CC(O)CO)c1c(I)c(C(=O)NCC(O)CO)c(I)c(C(=O)NCC(O)CO)c1I (stereo not shown) [iohexol] , report CL renal.
90.8 mL/min

* * *

- Experiment description: Clinical trial in healthy volunteers, population pharmacokinetic analysis
- Format: in vivo, human
- Setup conditions: human, plasma and urine, intravenous, final model, nonparametric bootstrap; read-out: CLR bootstrap median (95% CI) (converted)
Reported property: CL renal (mL/min)
Numbers only; they are read as mL/min.

For the compound CC(=O)N(CC(O)CO)c1c(I)c(C(=O)NCC(O)CO)c(I)c(C(=O)NCC(O)CO)c1I (stereo not shown) [iohexol] , report CL renal.
91.7

* * *

- Experiment description: Clinical trial in healthy volunteers, noncompartmental analysis of plasma and urine
- Type: in vivo, human
- Setup conditions: human, iv; Test: 259 mg i.v. bolus, fasting; plasma, n=12; geomean (geoSD); read-out: t1/2,λz (converted)
Reported property: half-life (h)
Numbers only; they are read as h.

For the compound CC(=O)N(CC(O)CO)c1c(I)c(C(=O)NCC(O)CO)c(I)c(C(=O)NCC(O)CO)c1I (stereo not shown) [iohexol] , report half-life.
3.32

* * *

- Experiment description: Clinical trial in healthy volunteers, noncompartmental analysis of plasma and urine
- Type: in vivo, human
- Setup conditions: human, iv; Test: 259 mg i.v. bolus, fasting; plasma, n=12; geomean (geoSD); read-out: Vz
Reported property: Vd (L)
Numbers only; they are read as L.

For the compound CC(=O)N(CC(O)CO)c1c(I)c(C(=O)NCC(O)CO)c(I)c(C(=O)NCC(O)CO)c1I (stereo not shown) [iohexol] , report Vd.
26.1

* * *

- Experiment description: Clinical trial in healthy volunteers, noncompartmental analysis of plasma and urine
- Format: in vivo, human
- Setup conditions: human, iv; Reference: 3235 mg i.v. bolus, fasting; urine, n=10; geomean (geoSD); read-out: Recovery (percentage of dose recovered in urine)
Reported property: dose excreted (%)
Numbers only; they are read as %.

For the molecule CC(=O)N(CC(O)CO)c1c(I)c(C(=O)NCC(O)CO)c(I)c(C(=O)NCC(O)CO)c1I (stereo not shown) [iohexol] , report dose excreted.
103

* * *

- Study system: hOATP1B1 (Homo sapiens)
- Construct: expressed in transfected cells; host or cells: 293 cells (control: empty vector)
- Sequence (Q9Y6L6 whole entry): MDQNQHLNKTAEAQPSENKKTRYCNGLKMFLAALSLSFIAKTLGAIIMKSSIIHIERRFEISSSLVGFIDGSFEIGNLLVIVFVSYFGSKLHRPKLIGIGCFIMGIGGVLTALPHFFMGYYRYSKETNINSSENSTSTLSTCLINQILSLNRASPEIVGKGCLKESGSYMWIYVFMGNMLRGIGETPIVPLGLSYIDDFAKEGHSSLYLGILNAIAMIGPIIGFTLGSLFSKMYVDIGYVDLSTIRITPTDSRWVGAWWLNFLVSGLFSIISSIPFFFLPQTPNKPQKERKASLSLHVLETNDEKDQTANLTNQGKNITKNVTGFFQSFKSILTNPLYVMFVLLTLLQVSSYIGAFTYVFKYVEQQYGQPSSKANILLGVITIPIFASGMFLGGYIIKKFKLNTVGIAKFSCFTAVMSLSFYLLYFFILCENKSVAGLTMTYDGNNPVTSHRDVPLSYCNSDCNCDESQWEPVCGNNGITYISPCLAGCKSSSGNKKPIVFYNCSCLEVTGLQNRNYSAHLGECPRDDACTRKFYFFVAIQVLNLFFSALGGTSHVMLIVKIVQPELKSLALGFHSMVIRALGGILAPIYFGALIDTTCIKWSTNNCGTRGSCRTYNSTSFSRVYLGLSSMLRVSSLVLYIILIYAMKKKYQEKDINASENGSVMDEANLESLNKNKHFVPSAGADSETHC
- Experiment description: Inhibition of hOATP1B1-mediated 3H-estrone sulfate uptake, stably transfected 293 cells
- Assay type: cell-based
- Setup conditions: human, stably transfected 293 cells expressing hOATP1B1, probe 3H-estrone sulfate; 2 mM iohexol; substrate 0.01 μM 3H-estrone sulfate; median (95% CI); read-out: Inhibitory effect (% reduction of specific activity)
Reported property: inhibition at 1 min, 2 mM

For the compound CC(=O)N(CC(O)CO)c1c(I)c(C(=O)NCC(O)CO)c(I)c(C(=O)NCC(O)CO)c1I (stereo not shown) [iohexol] , report inhibition at 1 min, 2 mM.
-6.9%

* * *

- Experiment description: Clinical trial in healthy volunteers, population pharmacokinetic analysis
- Assay type: in vivo, human
- Setup conditions: human, plasma and urine, intravenous, Model 2: excluding all data from the subject with delayed absorption when receiving the test dose; read-out: CLR estimate (converted)
Reported property: CL renal (mL/min)
Numbers only; they are read as mL/min.

For the compound CC(=O)N(CC(O)CO)c1c(I)c(C(=O)NCC(O)CO)c(I)c(C(=O)NCC(O)CO)c1I (stereo not shown) [iohexol] , report CL renal.
91.5

* * *

- Experiment description: Clinical trial in healthy volunteers, noncompartmental analysis of plasma and urine
- Assay type: in vivo, human
- Setup conditions: human, plasma, iv, 3235 mg, Reference: 3235 mg i.v. bolus, fasting; plasma, n=12; geomean (geoSD); read-out: AUC0‐∞
Reported property: AUC (µg·h/mL)
Numbers only; they are read as µg·h/mL.

For the molecule CC(=O)N(CC(O)CO)c1c(I)c(C(=O)NCC(O)CO)c(I)c(C(=O)NCC(O)CO)c1I (stereo not shown) [iohexol] , report AUC.
600

* * *

- Experiment description: Clinical trial in healthy volunteers, noncompartmental analysis of plasma and urine
- Type: in vivo, human
- Setup conditions: human, iv; Reference: 3235 mg i.v. bolus, fasting; plasma, n=12; geomean (geoSD); read-out: Vz
Reported property: Vd

For the compound CC(=O)N(CC(O)CO)c1c(I)c(C(=O)NCC(O)CO)c(I)c(C(=O)NCC(O)CO)c1I (stereo not shown) [iohexol] , report Vd.
32.4 L

* * *

- Experiment description: Clinical trial in healthy volunteers, population pharmacokinetic analysis;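 note: population pharmacokinetic parameters fitted to plasma and urine data, interindividual variability modelled exponentially, inter-occasion variability tied additively, sensitivity analysis compares alternative models omitting data from one subject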
- Assay type: in vivo, human
- Setup conditions: human, plasma and urine, intravenous; final model; read-out: Individual empirical Bayesian estimates of volume of distribution (sum of V1, V2, and V3), median (range)
Reported property: Vd (L)
Numbers only; they are read as L.

For the molecule CC(=O)N(CC(O)CO)c1c(I)c(C(=O)NCC(O)CO)c(I)c(C(=O)NCC(O)CO)c1I (stereo not shown) [iohexol] , report Vd.
15.1

* * *

- Study system: hOATP1B3 (Homo sapiens)
- Construct: expressed in transfected cells; host or cells: 293 cells (control: empty vector)
- Sequence (Q9NPD5 1-702): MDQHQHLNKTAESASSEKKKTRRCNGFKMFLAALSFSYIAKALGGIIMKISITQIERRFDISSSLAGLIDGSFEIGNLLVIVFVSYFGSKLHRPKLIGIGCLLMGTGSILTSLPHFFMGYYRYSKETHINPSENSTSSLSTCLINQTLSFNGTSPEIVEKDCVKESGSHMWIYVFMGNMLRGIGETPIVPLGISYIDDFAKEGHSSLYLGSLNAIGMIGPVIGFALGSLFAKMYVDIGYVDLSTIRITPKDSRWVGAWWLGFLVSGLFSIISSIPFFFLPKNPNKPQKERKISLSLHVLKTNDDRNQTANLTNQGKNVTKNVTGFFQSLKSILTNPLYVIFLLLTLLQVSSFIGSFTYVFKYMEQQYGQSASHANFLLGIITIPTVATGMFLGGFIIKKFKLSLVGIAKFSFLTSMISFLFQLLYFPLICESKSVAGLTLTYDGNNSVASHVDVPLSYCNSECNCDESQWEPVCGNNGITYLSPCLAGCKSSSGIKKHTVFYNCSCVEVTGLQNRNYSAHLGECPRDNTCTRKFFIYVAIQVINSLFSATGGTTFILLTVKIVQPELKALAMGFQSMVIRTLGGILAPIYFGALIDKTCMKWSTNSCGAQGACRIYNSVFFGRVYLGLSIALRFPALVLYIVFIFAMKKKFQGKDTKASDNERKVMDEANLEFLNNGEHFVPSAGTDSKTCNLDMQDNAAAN
- Experiment description: Inhibition of hOATP1B3-mediated 3H-BSP uptake, stably transfected 293 cells
- Type: cell-based
- Setup conditions: human, stably transfected 293 cells expressing hOATP1B3, probe 3H-bromosulphophthalein (BSP); 20 mM iohexol; substrate 0.02 μM 3H-BSP; median (95% CI); read-out: Inhibitory effect (% reduction of specific activity)
- Description: We characterized the inhibitory potential of iohexol on major drug transporters recommended by regulatory agencies, which were previously assessed in a clinical transporter phenotyping cocktail study. […] To determine the maximal inhibitory potential of iohexol, intracellular accumulation of a standard substrate was measured with and without the clinically relevant highest concentrations of iohexol. […]
Reported property: inhibition at 7 min, 20 mM
Please provide the amount together with its unit, number first.

For the compound CC(=O)N(CC(O)CO)c1c(I)c(C(=O)NCC(O)CO)c(I)c(C(=O)NCC(O)CO)c1I (stereo not shown) [iohexol] , report inhibition at 7 min, 20 mM.
-21%
